System: KATO III (FGFR2 amp)
procedureSummary: In vitro growth inhibition of KATO III tumor cells (MTT/CCK8)
Format: cell-based, Human
experimentalParameters: Homo sapiens, KATO III; in vitro growth inhibition (or induction of apoptosis), cells cultured 3 to 5 days, MTT (CCK8); read-out: IC50 KATO III (FGFR2 amp)
pIC50: −log10 of the molar value.
The threshold is inclusive: pIC50 of exactly 9 counts as Criterion met; values below receive Criterion not met.

CCC(=O)Nc1cc2c(Oc3ccc(NC(=O)Nc4cc(C(C)(C)C)on4)c(Cl)c3)ccnc2cc1OC ... Criterion not met
COCCOc1cc2nccc(Oc3ccc(NC(=O)Nc4cc(C(C)(C)C)nn4C4CCN(C)CC4)cc3)c2cc1NC(C)=O ... Criterion met
CC(C)(C)c1cc(NC(=O)Nc2ccc(Oc3ccnc4cc(OCCCN5CCN(CC6CCCCC6)CC5)c(C(N)=O)cc34)cc2Cl)[nH]n1 ... Criterion not met
COCCOc1cc2nccc(Oc3ccc(NC(=O)Nc4cc(C(C)(C)C)nn4C4CC4)c(Cl)c3)c2cc1NC(C)=O ... Criterion met
COCCOc1cc2nccc(Oc3ccc(NC(=O)Nc4cc(C(C)(C)C)nn4CCN(C)C)c(Cl)c3)c2cc1NC(C)=O ... Criterion met

# ---- query molecule ----
Reported pIC50 at or above 9? CNC(=O)c1cc2c(Oc3ccc(NC(=O)N4CCCC4)c(Cl)c3Cl)ccnc2cc1OCCOC Criterion not met

----------
System: H1703 (PDGFRa amp)
procedureSummary: In vitro growth inhibition of H1703 tumor cells (MTT/CCK8)
Type: cell-based, Human
experimentalParameters: Homo sapiens, NCI-H1703; in vitro growth inhibition (or induction of apoptosis), cells cultured 3 to 5 days, MTT (CCK8); read-out: IC50 H1703 (PDGFRa amp)
Can you tell me IC50 for the items I'm about to list?
Give bare numbers, in nM.

# batch size: 6; output IC50 per entry
1. COc1cc2nccc(Oc3ccc(NC(=O)Nc4cc(C(C)(C)C)n[nH]4)c(Cl)c3)c2cc1C(N)=O [Compound 25]
2. COc1cc2nccc(Oc3ccc(NC(=O)Nc4cc(C(C)(C)C)nn4C4CCCC4)c(Cl)c3)c2cc1C(N)=O [Compound 30]
3. CC(C)Oc1cc2nccc(Oc3ccc(NC(=O)Nc4cc(C(C)(C)C)n[nH]4)c(Cl)c3)c2cc1C(N)=O [Compound 43]
4. CN1CCN(CCCOc2cc3nccc(Oc4ccc(NC(=O)Nc5cc(C(C)(C)C)n[nH]5)c(Cl)c4Cl)c3cc2C(N)=O)CC1 [Compound 95]
5. CN(C)CCOc1cc2nccc(Oc3ccc(NC(=O)Nc4cc(C(C)(C)C)n[nH]4)c(Cl)c3)c2cc1C(N)=O [Compound 83]
6. COc1cc2nccc(Oc3ccc(NC(=O)Nc4cc(C(C)C)n[nH]4)c(Cl)c3)c2cc1C(N)=O [Compound 40]

[13.5, 16.7, 37.2, 3.81, 59.5, 93]

----------
Test system: KATO III (FGFR2 amp)
procedureSummary: In vitro growth inhibition of KATO III tumor cells (MTT/CCK8)
Type: cell-based, Human
experimentalParameters: Homo sapiens, KATO III, read-out: IC50 KATO III (FGFR2 amp)
measuredAttribute: pIC50
Answers are plain numbers, as −log10 of the molar value.

Please report pIC50 with KATO III (FGFR2 amp) for item CNC(=O)c1cc2c(Oc3ccc(NC(=O)n4nc(C(C)(C)C)cc4N)c(Cl)c3)ccnc2cc1OC [Compound 72] . 8.21

----------
Exercise: for every item that follows, state its recorded pIC50.
Test system: KATO III (FGFR2 amp)
procedureSummary: In vitro growth inhibition of KATO III tumor cells (MTT/CCK8)
Assay type: cell-based, Human
experimentalParameters: Homo sapiens, KATO III; in vitro growth inhibition (or induction of apoptosis), cells cultured 3 to 5 days, MTT (CCK8); read-out: IC50 KATO III (FGFR2 amp)
Answers are plain numbers, as −log10 of the molar value.

Record excerpt, results attached:
CNC(=O)c1cc2c(Oc3ccc(NC(=O)Nc4cc(C(C)(C)C)n[nH]4)c(Cl)c3)ccnc2cc1OC ... 8.84
COCCOc1cc2nccc(Oc3ccc(NC(=O)Nc4cc(C(C)(C)C)n[nH]4)cc3)c2cc1NC(C)=O ... 8.71

Then this compound:
Given the compound COc1cc2nccc(Oc3ccc(NC(=O)Nc4cc(C(C)(C)C)n[nH]4)c(Cl)c3)c2cc1C#N , write its reported pIC50. 8.17

----------
System: KYSE70
procedureSummary: In vitro growth inhibition of PI3KCA amplified/mutant tumor cells KYSE70
Assay type: cell-based
experimentalParameters: Homo sapiens, KYSE-70, read-out: IC50 growth inhibition
measuredAttribute: IC50
Don't forget the unit after the value.

Input COc1c(OCCCN2CCOCC2)ccc2c1N=C(NC(=O)c1cnc(N)nc1)N1CCN=C21 [BAY 80-6946, reference compound] , output reported IC50. 19.7 nM

----------
System: H1581 (FGFR1 amp)
procedureSummary: In vitro growth inhibition of H1581 tumor cells (MTT/CCK8)
Type: cell-based, Human
experimentalParameters: Homo sapiens, NCI-H1581; in vitro growth inhibition (or induction of apoptosis), cells cultured 3 to 5 days, MTT (CCK8); read-out: IC50 H1581 (FGFR1 amp)
Excerpt: Tumor cell lines are an effective model for studying in vitro tumor growth inhibition. In the present invention, a representative tumor cell line was selected to determine the cell growth inhibition activity of the present compound. All cell lines used were from ATCC, DSMZ, and cell banks of the Chinese Academy of Sciences. […] Adherent cells were digested with 0.25% trypsin-EDTA (Gibco). […] The supernatant was discarded and the cells were counted. […]
Each entry falls in a class defined on IC50; the bands are lower segment: < 10 nM; middle segment: ≥ 10 nM and < 70 nM; upper segment: ≥ 70 nM

Examples from the recorded data:
COCCOc1cc2nccc(Oc3ccc(NC(=O)Nc4cc(C(C)(C)C)nn4C)c(Cl)c3)c2cc1C(N)=O [Compound 44] ... lower segment
CN1CCN(CCCOc2cc3nccc(Oc4ccc(NC(=O)Nc5cc(C(C)(C)C)nn5C5CCCC5)c(Cl)c4)c3cc2C(N)=O)CC1 [Compound 139] ... lower segment
COCCOc1cc2nccc(Oc3ccc(NC(=O)Nc4cc(C(C)(C)C)nn4C4CC4)cc3)c2cc1NC(C)=O [Compound 118] ... middle segment
COc1cc2nccc(Oc3ccc(NC(=O)Nc4cc(C(C)(C)C)n[nH]4)cc3Cl)c2cc1C(N)=O [Compound 36] ... middle segment
COCCOc1cc2nccc(Oc3ccc(NC(=O)Nc4cc(C(C)(C)C)nn4CCN4CCOCC4)cc3F)c2cc1NC(C)=O [Compound 136] ... middle segment

Class label required: C=CC(=O)Nc1cc2c(Oc3ccc(NC(=O)Nc4cc(C(C)(C)C)n[nH]4)cc3Cl)ccnc2cc1OC [Compound 105] middle segment

For this compound, which bin applies? COc1cc2nccc(Oc3ccc(NC(=O)Nc4cc(C(C)(C)C)n[nH]4)c(Cl)c3)c2cc1C#N [Compound 67] upper segment

Determine which band this compound sits in: CNC(=O)c1cc2c(Oc3ccc(NC(=O)Nc4cc(C(C)(C)C)n[nH]4)cc3C)ccnc2cc1OC [Compound 52] upper segment

Record COc1cc2nccc(Oc3ccc(NC(=O)Nc4cc(C(C)(C)C)on4)c(Cl)c3)c2cc1C#N [Compound 19] — which class? upper segment

Sort into band: CNC(=O)c1cc2c(Oc3ccc(NC(=O)Nc4cc(C(C)(C)C)nn4C)c(Cl)c3Cl)ccnc2cc1OC [Compound 57] lower segment

Please report the category associated with COCCOc1cc2nccc(Oc3ccc(NC(=O)Nc4cc(C(C)(C)C)nn4CCN(C)C)c(Cl)c3)c2cc1NC(C)=O [Compound 127] , nothing else. lower segment

Form field 'band' for COc1cc2nccc(Oc3ccc(NC(=O)Nc4cc(C(C)(C)C)n[nH]4)cc3C)c2cc1NC(C)=O [Compound 103] middle segment

Classify this compound: COc1cc(Oc2ccnc3cc(OC)c(C(N)=O)cc23)ccc1NC(=O)n1nc(C(C)(C)C)cc1N [Compound 73] upper segment

Lab note: which band did COc1cc2nccc(Nc3ccc(NC(=O)Nc4cc(C(C)(C)C)on4)c(Cl)c3)c2cc1C(N)=O [Compound 77] land in? upper segment

Place this compound in its band: CC(C)(C)c1cc(NC(=O)Nc2ccc(Oc3ccnc4cc(OCCN5CCCCC5)c(C(N)=O)cc34)cc2Cl)[nH]n1 [Compound 84] upper segment

Classify this compound: CNC(=O)c1cc2c(Oc3ccc(NC(=O)Nc4cc(C(C)(C)C)n[nH]4)c(Cl)c3)ccnc2cc1OC [Compound 45] middle segment

Which bin should I file COCCOc1cc2nccc(Oc3ccc(NC(=O)Nc4cc(C(C)(C)C)nn4C)c(Cl)c3)c2cc1NC(C)=O [Compound 124] under? lower segment
